- Test system: 953936-095-R-J2-PDC spheroids with HUVEC/MSC, viability;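 note: spheroids exposed to compounds for seven days before read-out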
- ASSAY NOTES: Anticancer human tumor 953936-095-R-J2-PDC patient-derived cervical squamous cell carcinoma cell line growth inhibition [PI3K]
- EXPERIMENTAL CONTEXT: second compound 0.1 µM; first compound 10 µM; stronger effect = lower value
Would you mind classing the entries by viability, T/C? Ranges: one: < 10%; two: ≥ 10% and < 70%; three: ≥ 70%

# MOLECULE, LABEL
measured = [
    ("C[C@@H](NC(=O)c1ncnc(N)c1Cl)c1ncc(C(=O)Nc2cc(C(F)(F)F)c(Cl)cn2)s1 + Cc1nc(NC(=O)N2CCCC2C(N)=O)sc1-c1ccnc(C(C)(C)C(F)(F)F)c1", "three"),
    ("CC1(C)CCC(Nc2ncc(C(F)(F)F)c(-c3c[nH]c4c(P(C)(C)=O)c(C#N)ccc34)n2)CN1 (configuration not stated) + CC(Nc1ccc2c(c1)OCCn1cc(N3C(=O)OCC3C(F)F)nc1-2)C(N)=O", "one"),
    ("Cn1ncc(Cl)c1-c1cc(C(=O)NC(CN)Cc2cccc(F)c2)sc1Cl (configuration not stated) + COc1c(OCCCN2CCOCC2)ccc2c3n(c(=NC(=O)c4cnc(N)nc4)nc12)CCN3", "one"),
    ("CNC(=O)c1ccc(N2C(=S)N(c3ccc(C#N)c(C(F)(F)F)c3)C(=O)C2(C)C)cc1F + CC(Nc1ccc2c(c1)OCCn1cc(N3C(=O)OCC3C(F)F)nc1-2)C(N)=O", "two"),
    ("CNC(=O)c1ccc(N2C(=S)N(c3ccc(C#N)c(C(F)(F)F)c3)C(=O)C2(C)C)cc1F + CC(Nc1ncnc2nc[nH]c12)c1cc2cccc(Cl)c2c(=O)n1-c1ccccc1", "three"),
    ("CC(C)NCC(C(=O)N1CCN(c2ncnc3c2C(C)CC3O)CC1)c1ccc(Cl)cc1 (configuration not stated) + COc1c(OCCCN2CCOCC2)ccc2c3n(c(=NC(=O)c4cnc(N)nc4)nc12)CCN3", "one"),
    ("CC1(C)CCC(Nc2ncc(C(F)(F)F)c(-c3c[nH]c4c(P(C)(C)=O)c(C#N)ccc34)n2)CN1 (configuration not stated) + Cc1nc(NC(=O)N2CCCC2C(N)=O)sc1-c1ccnc(C(C)(C)C(F)(F)F)c1", "one"),
    ("Cn1ncc(Cl)c1-c1cc(C(=O)NC(CN)Cc2cccc(F)c2)sc1Cl (configuration not stated) + CC(Nc1ccc2c(c1)OCCn1cc(N3C(=O)OCC3C(F)F)nc1-2)C(N)=O", "two"),
    ("CC(Cn1ccc(-c2ccc(C#N)c(Cl)c2)n1)NC(=O)c1cc(C(C)O)[nH]n1 (configuration not stated) + Cc1nc(NC(=O)N2CCCC2C(N)=O)sc1-c1ccnc(C(C)(C)C(F)(F)F)c1", "three"),
    ("C#Cc1c(F)ccc2cc(O)cc(-c3ncc4c(N5CC6CCC(C5)N6)nc(OCC56CCCN5CC(F)C6)nc4c3F)c12 (configuration not stated) + CC(Nc1ccc2c(c1)OCCn1cc(N3C(=O)OCC3C(F)F)nc1-2)C(N)=O", "two"),
    ("Cn1ncc(Cl)c1-c1cc(C(=O)NC(CN)Cc2cccc(F)c2)sc1Cl (configuration not stated) + Cc1nc(NC(=O)N2CCCC2C(N)=O)sc1-c1ccnc(C(C)(C)C(F)(F)F)c1", "one"),
    ("C=CC(=O)N1CCN(c2nc(=O)n(-c3c(C)ccnc3C(C)C)c3nc(-c4c(O)cccc4F)c(F)cc23)C(C)C1 (configuration not stated) + Cc1nc(NC(=O)N2CCCC2C(N)=O)sc1-c1ccnc(C(C)(C)C(F)(F)F)c1", "three"),
    ("CC(C)NCC(C(=O)N1CCN(c2ncnc3c2C(C)CC3O)CC1)c1ccc(Cl)cc1 (configuration not stated) + Cc1nc(NC(=O)N2CCCC2C(N)=O)sc1-c1ccnc(C(C)(C)C(F)(F)F)c1", "two"),
    ("Cn1nccc1Nc1nccc(-c2ccn(C(CO)c3ccc(Cl)c(F)c3)c(=O)c2)n1 (configuration not stated) + CC(Nc1ccc2c(c1)OCCn1cc(N3C(=O)OCC3C(F)F)nc1-2)C(N)=O", "two"),
    ("Cn1ncc(Cl)c1-c1cc(C(=O)NC(CN)Cc2cccc(F)c2)sc1Cl (configuration not stated) + CC(Nc1ncnc2nc[nH]c12)c1cc2cccc(Cl)c2c(=O)n1-c1ccccc1", "two"),
    ("C[C@@H](NC(=O)c1ncnc(N)c1Cl)c1ncc(C(=O)Nc2cc(C(F)(F)F)c(Cl)cn2)s1 + CC(Nc1ncnc2nc[nH]c12)c1cc2cccc(Cl)c2c(=O)n1-c1ccccc1", "three"),
    ("CCCS(=O)(=O)Nc1ccc(F)c(C(=O)c2c[nH]c3ncc(-c4ccc(Cl)cc4)cc23)c1F + COc1c(OCCCN2CCOCC2)ccc2c3n(c(=NC(=O)c4cnc(N)nc4)nc12)CCN3", "one"),
    ("C[C@@H](NC(=O)c1ncnc(N)c1Cl)c1ncc(C(=O)Nc2cc(C(F)(F)F)c(Cl)cn2)s1 + COc1c(OCCCN2CCOCC2)ccc2c3n(c(=NC(=O)c4cnc(N)nc4)nc12)CCN3", "two"),
    ("CCCS(=O)(=O)Nc1ccc(F)c(C(=O)c2c[nH]c3ncc(-c4ccc(Cl)cc4)cc23)c1F + Cc1nc(NC(=O)N2CCCC2C(N)=O)sc1-c1ccnc(C(C)(C)C(F)(F)F)c1", "one"),
    ("Cn1nccc1Nc1nccc(-c2ccn(C(CO)c3ccc(Cl)c(F)c3)c(=O)c2)n1 (configuration not stated) + CC(Nc1ncnc2nc[nH]c12)c1cc2cccc(Cl)c2c(=O)n1-c1ccccc1", "two"),
    ("CNC(=O)c1ccc(N2C(=S)N(c3ccc(C#N)c(C(F)(F)F)c3)C(=O)C2(C)C)cc1F + Cc1nc(NC(=O)N2CCCC2C(N)=O)sc1-c1ccnc(C(C)(C)C(F)(F)F)c1", "three"),
]
